Study system: D-amino-acid oxidase (Homo sapiens)
Sequence (P14920 whole entry): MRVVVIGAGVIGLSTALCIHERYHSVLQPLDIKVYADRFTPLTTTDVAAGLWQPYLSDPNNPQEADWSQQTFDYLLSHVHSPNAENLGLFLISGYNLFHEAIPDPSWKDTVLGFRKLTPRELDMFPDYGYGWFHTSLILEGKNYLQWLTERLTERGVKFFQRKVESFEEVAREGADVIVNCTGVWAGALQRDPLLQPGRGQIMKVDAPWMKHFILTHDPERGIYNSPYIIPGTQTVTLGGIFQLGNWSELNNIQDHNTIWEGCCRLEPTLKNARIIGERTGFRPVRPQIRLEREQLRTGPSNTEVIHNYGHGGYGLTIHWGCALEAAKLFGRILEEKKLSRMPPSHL
Measurement name: Ki (µM)
Supply the numeric figure in µM, leaving out any unit text.

For the molecule O=C(O)c1ccc(CN2CCC(CN[C@@H]3C[C@H]3c3ccccc3)CC2)cc1 , give its reported Ki.
520

---

Study system: Beta-2 adrenergic receptor (Homo sapiens)
Sequence (P07550 whole entry): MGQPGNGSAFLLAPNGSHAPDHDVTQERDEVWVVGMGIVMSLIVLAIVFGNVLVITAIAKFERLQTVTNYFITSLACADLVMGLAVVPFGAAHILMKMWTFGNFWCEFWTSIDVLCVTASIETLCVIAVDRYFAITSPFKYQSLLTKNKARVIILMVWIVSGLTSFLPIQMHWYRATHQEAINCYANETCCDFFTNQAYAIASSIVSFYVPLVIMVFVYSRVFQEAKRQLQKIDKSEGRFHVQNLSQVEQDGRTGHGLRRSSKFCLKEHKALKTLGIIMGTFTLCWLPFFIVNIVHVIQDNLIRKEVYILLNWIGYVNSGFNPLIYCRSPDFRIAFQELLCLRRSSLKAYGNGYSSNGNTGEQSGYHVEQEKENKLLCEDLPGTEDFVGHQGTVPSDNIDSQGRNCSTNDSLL
Test method notes: Antagonist activity at Adrenergic b2 receptor (unknown origin)
Assay type: functional
So I've got a bunch of compounds here, and I need their EC50 values.

For the compound c1ccc([C@@H]2C[C@H]2NC2CCNCC2)cc1 , give its reported EC50.
> 100 µM

For the compound O=C(O)c1ccc(CN2CCC(CN[C@@H]3C[C@H]3c3ccccc3)CC2)cc1 , give its reported EC50.
> 32 µM
